Experimental Protocol: Stability in human plasma
Type: in vitro ADME
Setup Conditions: human, human plasma in Krebs-Henseleit buffer, pH 7.4, human plasma, Krebs-Henseleit buffer pH 7.4, 37°C; 0, 30 and 120 minutes; first-order kinetics; read-out: Plasma half-life (converted)
Peptide text beside a SMILES is read from it.
Property Label: half-life (h)
Respond numerically; units are h and should not be typed.

Lookup result for NC(=O)C[C@H](NC(=O)[C@H](Cc1c[nH]c2ccccc12)NC(=O)[C@@H](N)CC(N)=O)C(=O)O [EDF-analogue, NWN] (H-Asn-Trp-Asn-OH; N-terminus and C-terminus assumed) ; measured half-life: 4.47

----------
Experimental Protocol: Stability in human plasma
Type: in vitro ADME
Setup Conditions: human plasma in Krebs-Henseleit buffer; human plasma, Krebs-Henseleit buffer pH 7.4, 37°C; 0, 30 and 120 minutes; first-order kinetics; read-out: Plasma half-life (converted)
Protocol: In vitro chemical and metabolic stability was determined in cell medium and human plasma, respectively, using previously described procedures. […] Next, the samples were centrifuged to precipitate the denatured proteins and the supernatant analyzed using UPLC-PDA. […] Assuming first-order kinetics, the rate constant k was obtained from ln(Pt/Pt0) = -kt, from which the half-life was determined as t1/2 = ln(2)/k.
Ends that are not written are not given here.
Property Label: half-life (h)
Respond numerically; units are h and should not be typed.

Lookup result for EMRKSNNNFFHFLRRI [CSP] ; measured half-life: 8.73
